- TARGET_DESC: recombinant human cIAP1-BIR3 protein (Homo sapiens)
- Construct: recombinant human cIAP1-BIR3 protein; purchased Reaction biology APT-11-370
- Sequence (Q13490 253-363 limits assumed): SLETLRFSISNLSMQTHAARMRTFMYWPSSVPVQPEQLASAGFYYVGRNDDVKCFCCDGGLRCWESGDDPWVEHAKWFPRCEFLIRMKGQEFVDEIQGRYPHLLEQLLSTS
- PROCEDURE_SUMMARY: Recombinant human c-IAP1-BIR3 biochemical assay (HTRF, peptide displacement)
- EXPERIMENTAL_CONDITIONS: 1.2 nM cIAP1-BIR3, 3 nM AbuRPF-K(5-Fam)-NH2 peptide, read-out: Protein binding IC50 (nM) c-IAP1
Structures can show the parent of a compound that is named as a salt.
REPORTED_ENDPOINT: IC50 (nM)

>>> test_result("C[C@@H]1CN(CC(=O)N2c3cc(Cc4ccc(F)cc4)c(C(=O)N4CC[C@H](F)C4)nc3OC[C@@H]2C)[C@@H](CN2[C@H](C)COC[C@H]2C)CN1")
0.17
>>> test_result("CNC(=O)c1nc2c(cc1Cc1ccc(F)cc1)N(C(=O)CN1C[C@@H](C)NC[C@@H]1CN1[C@H](C)COC[C@H]1C)[C@@H](C)CO2")
0.23
>>> test_result("C[C@@H]1CN(CC(=O)N2CCOc3nc(C#N)c(Cc4ccc(F)cc4)cc32)[C@@H](CN2CCOC[C@H]2C)CN1 [Compound 1, formate]")
0.5
>>> test_result("COCCC(=O)Nc1nc2c(cc1Cc1ccc(F)cc1)N(C(=O)CN1C[C@@H](C)NC[C@@H]1CN1[C@H](C)COC[C@H]1C)[C@@H](C)CO2")
0.2

[a] C[C@@H]1CN(CC(=O)N2c3cc(Cc4ccc(F)cc4)c(N)nc3OC[C@@H]2C)[C@@H](CN2[C@H](C)COC[C@H]2C)CN1
[b] COC[C@H]1COc2nc(CO)c(Cc3ccc(F)cc3)cc2N1C(=O)CN1C[C@@H](C)NC[C@@H]1CN1[C@H](C)COC[C@H]1C
Query :: Would you let me know which has the greater IC50 value, a or b ? Record your answer as the label of the chosen record.
Result :: a
(a: 0.17 nM, b: 0.11 nM)

---

- TARGET_DESC: recombinant human XIAP-BIR3 protein (Homo sapiens, UniProt P98170)
- Construct: recombinant human XIAP-BIR3 protein; purchased Reaction biology APT-11-374
- Sequence (P98170 241-356 limits assumed): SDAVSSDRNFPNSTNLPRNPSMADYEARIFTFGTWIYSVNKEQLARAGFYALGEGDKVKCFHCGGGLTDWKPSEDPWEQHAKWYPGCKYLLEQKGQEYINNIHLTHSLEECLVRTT
- PROCEDURE_SUMMARY: Recombinant human XIAP-BIR3 biochemical assay (HTRF, peptide displacement)
- EXPERIMENTAL_CONDITIONS: 3.7 nM XIAP-BIR3, 7.6 nM AbuRPF-K(5-Fam)-NH2 peptide, read-out: Protein binding IC50 (nM) XIAP
REPORTED_ENDPOINT: IC50 (nM)

>>> test_result("C[C@@H]1CN(CC(=O)N2c3cc(Cc4ccc(F)cc4)c(C(=O)N[C@H]4CCOC4)nc3OC[C@@H]2C)[C@@H](CN2[C@H](C)COC[C@H]2C)CN1")
5.2

[A] CCNC(=O)c1nc2c(cc1Cc1ccc(F)cc1)N(C(=O)CN1C[C@@H](C)NC[C@@H]1CN1[C@H](C)COC[C@H]1C)[C@@H](C)CO2
[B] C[C@@H]1CN(CC(=O)N2c3cc(Cc4ccc(F)cc4)cnc3OC[C@@H]2COc2ccccc2)[C@@H](CN2[C@H](C)COC[C@H]2C)CN1
Query :: Would you let me know which has the greater IC50 value, A or B ? Record your answer as the label of the chosen record.
Result :: B

---

- TARGET_DESC: recombinant human cIAP2-BIR3 protein (Homo sapiens, UniProt Q13489)
- Construct: recombinant human cIAP2-BIR3 protein; purchased Reaction biology APT-11-372
- Sequence (Q13489 238-349 limits assumed): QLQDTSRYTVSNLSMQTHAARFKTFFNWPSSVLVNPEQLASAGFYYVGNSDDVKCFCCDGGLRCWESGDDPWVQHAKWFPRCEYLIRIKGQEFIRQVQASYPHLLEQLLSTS
- PROCEDURE_SUMMARY: Recombinant human c-IAP2-BIR3 biochemical assay (HTRF, peptide displacement)
- EXPERIMENTAL_CONDITIONS: 3.7 nM cIAP2-BIR3, 3.7 nM AbuRPF-K(5-Fam)-NH2 peptide, read-out: Protein binding IC50 (nM) c-IAP2
REPORTED_ENDPOINT: IC50 (nM)

[1] C[C@@H]1CN(CC(=O)N2c3cc(Cc4ccc(F)cc4)c(CO)nc3OC[C@@H]2C)[C@@H](CN2C[C@H](C)OC[C@H]2C)CN1 [Compound 49]
[2] CC1COc2ncc(Cc3ccc(F)cc3)cc2N1C(=O)CN1C[C@@H](C)NC[C@@H]1CN1CCOC[C@H]1C (stereo partly drawn) [Compound 19]
Query :: Would you let me know which has the greater IC50 value, 1 or 2 ? Record your answer as the label of the chosen record.
Result :: 2

---

- TARGET_DESC: recombinant human XIAP-BIR3 protein (Homo sapiens, UniProt P98170)
- Construct: recombinant human XIAP-BIR3 protein; purchased Reaction biology APT-11-374
- PROCEDURE_SUMMARY: Recombinant human XIAP-BIR3 biochemical assay (HTRF, peptide displacement)
- EXPERIMENTAL_CONDITIONS: 3.7 nM XIAP-BIR3, 7.6 nM AbuRPF-K(5-Fam)-NH2 peptide, read-out: Protein binding IC50 (nM) XIAP
REPORTED_ENDPOINT: IC50 (nM)

Guide cases for IC50, answers given:
>>> test_result("C[C@@H]1CN(CC(=O)N2c3cc(Cc4ccc(F)cc4)c(CO)nc3OC[C@@H]2C)[C@@H](CN2CCOC[C@H]2C(F)F)CN1")
34
>>> test_result("C[C@@H]1CN(CC(=O)N2c3cc(Cc4ccc(F)cc4)c(C(=O)NCCN(C)C)nc3OC[C@@H]2C)[C@@H](CN2[C@H](C)COC[C@H]2C)CN1")
12.5
>>> test_result("C[C@@H]1CN(CC(=O)N2c3cc(Cc4ccc(F)cc4)c(CO)nc3OC[C@@H]2C)[C@@H](CN2CCOCC23CC3)CN1")
14

[P] CNC(=O)c1nc2c(cc1Cc1ccc(F)cc1)N(C(=O)CN1C[C@@H](C)NC[C@@H]1CN1[C@H](C)COC[C@H]1C)[C@@H](C)CO2
[Q] C[C@@H]1CN(CC(=O)N2CCOc3nc(CO)c(Cc4ccc(F)cc4)cc32)[C@@H](CN2CCOC[C@H]2C)CN1
Query :: Would you let me know which has the greater IC50 value, P or Q ? Record your answer as the label of the chosen record.
Result :: Q
(Q: 45 nM, P: 5.5 nM)

[1] COCCC(=O)Nc1nc2c(cc1Cc1ccc(F)cc1)N(C(=O)CN1C[C@@H](C)NC[C@@H]1CN1[C@H](C)COC[C@H]1C)[C@@H](C)CO2
[2] Cc1nc2c(cc1Cc1ccc(F)cc1)N(C(=O)CN1C[C@@H](C)NC[C@@H]1CN1CCOC[C@H]1C)CCO2
Query :: Would you let me know which has the greater IC50 value, 1 or 2 ? Record your answer as the label of the chosen record.
Result :: 2
(2: 18 nM, 1: 4.2 nM)

[A] C[C@@H]1CN(CC(=O)N2c3cc(Cc4ccc(F)cc4)c(NS(=O)(=O)C4CC4)nc3OC[C@@H]2C)[C@@H](CN2[C@H](C)COC[C@H]2C)CN1
[B] C[C@@H]1CN(CC(=O)N2c3cc(Cc4ccc(F)cc4)c(CO)nc3OC[C@@H]2C)[C@@H](CN2C[C@@H]3C[C@H]2CO3)CN1
[C] C[C@@H]1CN(CC(=O)N2c3cc(Cc4ccc(F)cc4)c(C(N)=O)nc3OC[C@@H]2C)[C@@H](CN2CCOCC23CC3)CN1
Query :: Ordering: ascending IC50. List the labels in the requested order.
Result :: A, C, B
(A: 4.4 nM, C: 12.4 nM, B: 20 nM)

[P] CC(C)C(=O)Nc1nc2c(cc1Cc1ccc(F)cc1)N(C(=O)CN1C[C@@H](C)NC[C@@H]1CN1[C@H](C)COC[C@H]1C)[C@@H](C)CO2
[Q] C[C@@H]1CN(CC(=O)N2c3cc(Cc4ccc(F)cc4)cnc3OC[C@@H]2c2ccccc2)[C@@H](CN2[C@H](C)COC[C@H]2C)CN1
[R] C[C@@H]1CN(CC(=O)N2c3cc(Cc4ccc(F)cc4)c(C(=O)N4CC[C@@H](F)C4)nc3OC[C@@H]2C)[C@@H](CN2[C@H](C)COC[C@H]2C)CN1
[S] C[C@@H]1CN(CC(=O)N2c3cc(Cc4ccc(F)cc4)c(CO)nc3OC[C@@H]2C)[C@@H](CN2CCOC[C@@H]2C(F)(F)F)CN1 [Compound 91B]
Query :: Ordering: ascending IC50. List the labels in the requested order.
Result :: R, P, Q, S

[I] C[C@@H]1CN(CC(=O)N2c3cc(Cc4ccc(F)cc4)c(NCC(F)(F)F)nc3OC[C@@H]2C)[C@@H](CN2[C@H](C)COC[C@H]2C)CN1
[II] C[C@@H]1CN(CC(=O)N2CCOc3nc(Br)c(Cc4ccc(F)cc4)cc32)[C@@H](CN2CCOC[C@H]2C)CN1
Query :: Would you let me know which has the greater IC50 value, I or II ? Record your answer as the label of the chosen record.
Result :: II
(II: 17 nM, I: 4.6 nM)

[a] CC(=O)Nc1nc2c(cc1Cc1ccc(F)cc1)N(C(=O)CN1C[C@@H](C)NC[C@@H]1CN1[C@H](C)COC[C@H]1C)[C@@H](C)CO2
[b] C[C@@H]1CN(CC(=O)N2CCOc3ncc(Cc4ccc(F)cc4)cc32)[C@@H](CN2C[C@@H]3C[C@H]2CO3)CN1
Query :: Would you let me know which has the greater IC50 value, a or b ? Record your answer as the label of the chosen record.
Result :: b

[I] C[C@@H]1CN(CC(=O)N2c3cc(Cc4ccc(F)cc4)c(C(=O)NC[C@H]4CCOC4)nc3OC[C@@H]2C)[C@@H](CN2[C@H](C)COC[C@H]2C)CN1
[II] CCOc1nc2c(cc1Cc1ccc(F)cc1)N(C(=O)CN1C[C@@H](C)NC[C@@H]1CN1CCOC[C@H]1C)CCO2
[III] C[C@@H]1CN(CC(=O)N2c3cc(Cc4ccc(F)cc4)c(CO)nc3OC[C@@H]2C)[C@@H](CN2CCOC[C@H]2CO)CN1
[IV] CC(C)C[C@H]1COc2ncc(Cc3ccc(F)cc3)cc2N1C(=O)CN1C[C@@H](C)NC[C@@H]1CN1CCOC[C@H]1C
Query :: List items by IC50 in falling order. List the labels in the requested order.
Result :: IV, III, II, I
(IV: 47 nM, III: 25 nM, II: 5.4 nM, I: 3.75 nM)

[P] C[C@@H]1CN(CC(=O)N2c3cc(Cc4ccc(F)cc4)c(NCCO)nc3OC[C@@H]2C)[C@@H](CN2[C@H](C)COC[C@H]2C)CN1
[Q] C[C@@H]1CN(CC(=O)N2c3cc(Cc4ccc(F)cc4)c(N4CCOCC4)nc3OC[C@@H]2C)[C@@H](CN2[C@H](C)COC[C@H]2C)CN1
Query :: Please indicate which has the smaller reported IC50: P , or Q . Record your answer as the label of the chosen record.
Result :: P
(P: 10.3 nM, Q: 16.9 nM)
